- STUDY SYSTEM: Cyclin-dependent kinase 2 (Homo sapiens, UniProt P24941)
ASSAY ENDPOINT: Ki (nM)

smiles_str=CC(C)(C)n1nc(-c2cccc(NC(=O)/C(C#N)=C/c3cc([N+](=O)[O-])cc([N+](=O)[O-])c3)c2)c2c(=O)[nH]cnc21 measured_value=1640
smiles_str=CC(C)(C)n1nc(-c2cccc(NC(=O)/C(C#N)=C/c3cccc([N+](=O)[O-])c3)c2)c2c(=O)[nH]cnc21 measured_value=2460
smiles_str=COc1ccc(/C=C(\C#N)C(=O)Nc2cccc(-c3nn(C(C)(C)C)c4nc[nH]c(=O)c34)c2)cc1 measured_value=9700
smiles_str=CC(C)(C)/C=C(\C#N)C(=O)Nc1cccc(-c2nn(C(C)(C)C)c3nc[nH]c(=O)c23)c1 measured_value=2570
